- tgt: […]2 ATG8 (2–115) (human, UniProt P60520 2-115)
- Sequence (P60520 2-115): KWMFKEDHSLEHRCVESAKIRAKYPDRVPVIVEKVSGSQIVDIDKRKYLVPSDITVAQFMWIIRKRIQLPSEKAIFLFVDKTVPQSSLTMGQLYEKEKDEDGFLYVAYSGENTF
- experimentNotes: fluorescence polarisation
pKd: −log10 of the molar value. Square brackets hold non-standard residues; d marks the D form. * marks the point of attachment. FITC = O=C1OC2(c3ccc(O)cc3Oc3cc(O)ccc32)c2ccc(NC(=S)*)cc21; pY = N[C@@H](Cc1ccc(OP(=O)(O)O)cc1)C(=O)O; pS = N[C@@H](COP(=O)(O)O)C(=O)O
metricName: pKd

Suppose we examine the binder {FITC}-RSGENPYASIDISKGE-NH2 [FITC-labeled ACE2(775–790) peptide, unphosphorylated] ; what pKd value has been reported? < 4.00

Suppose we examine the binder {FITC}-RSGENP[pY]ASIDISKGE-NH2 [FITC-labeled ACE2(775–790) peptide, pTyr781] ; what pKd value has been reported? < 4.00

Suppose we examine the binder {FITC}-RSGENPYA[pS]IDISKGE-NH2 [FITC-labeled ACE2(775–790) peptide, pSer783] ; what pKd value has been reported? < 4.00
